Each recorded value in this set is attributed to PubChem BioAssay (EPA / NIEHS).

Read-out: CFLAR gene, CFLAR (gene 8837)
Assay: LTEA_HepaRG_CFLAR: Life Technologies and Expression Analysis (LTEA) Assay for CFLAR gene using HepaRG (AID 2283455)
Settings: mRNA level, 48 h; actives raise or lower the signal
Activity calls are given as the source filed them. How the source made its calls: active means hit-call score of the fitted dose curve at least 0.9, where 1 is the maximum; inactive means score below 0.9.
// allowed return values: active, inactive

molecule_smiles	answer_label
O=c1[nH]sc2ccccc12	inactive
Cc1ccc2oc(CN(Cc3ccccc3)C(=O)Nc3c(F)cc(F)cc3F)c(-c3ccc(Cl)cc3)c2c1	inactive

Ask: How was CC(C)(c1cc(Br)c(O)c(Br)c1)c1cc(Br)c(O)c(Br)c1 classified in this test?
Result: active

Ask: How was Oc1ccccc1 classified in this test?
Result: inactive

Ask: How was O=C(Nc1ccc(Cl)cc1)Nc1ccc(Cl)c(Cl)c1 classified in this test?
Result: inactive
